# Test system: NCI/ADR-RES ovarian
# test protocol: NCI-60 one-dose screen, 48 h (100 = growth as untreated, 0 = no growth, -100 = all killed)
# conditions: 10 µM unless noted
Compounds without any hit were thinned out: in the full panel of roughly 83,000, 20% have a hit.
measurement name: growth (%)

> print(dat)
                           substance.smiles  unit.label  recorded.result
1                C(CCCSC1=NCCN1)CCSC1=NCCN1           %             94.4
2  Clc1ccc2c(NCCCn3cnc4c(N5CCCC5)nc(Cl)nc43)ccnc2c1           %             93.3
3  CS(=O)(=O)Nc1cc(-c2ccc3ncnc(Nc4cccc(Cl)c4)c3c2)cnc1Cl           %             19.2
4  O=C1c2c(c3c4cccnc4[nH]c3c3ccc4ccccc4c23)C(=O)N1O           %             94.3

###

# Test system: BT-549 breast
# test protocol: NCI-60 one-dose screen, 48 h (100 = growth as untreated, 0 = no growth, -100 = all killed)
# conditions: 10 µM unless noted
Compounds without any hit were thinned out: in the full panel of roughly 83,000, 20% have a hit.
Rule: growth below 90% gives TRUE. Equal to or above 90% gives FALSE.

> print(dat)
                           substance.smiles  class
1        COc1ccc(Cn2cc3c(c2)-c2oncc2CC3)cc1   TRUE
2  N#Cc1c(-c2ccc(Cl)cc2)nc(NN=Cc2cccc(Cl)c2)nc1N1CCOCC1  FALSE
3  CC1=C2[C@@H](CC1)[C@]1(C)O[C@@](C(C)C)(C[C@H]1OC(=O)CO)[C@H]2OC(=O)CCCc1ccccc1   TRUE
4  COc1ccc(/C=C2/CCc3cc4ccc(OC)cc4[o+]c32)c(O)c1  FALSE

###

Items are presented alongside their recorded growth.
# Tested on: SF-295 CNS
# test protocol: NCI-60 one-dose screen, 48 h (100 = growth as untreated, 0 = no growth, -100 = all killed)
# conditions: 10 µM unless noted
Compounds without any hit were thinned out: in the full panel of roughly 83,000, 20% have a hit.

compound	unit label	growth
Oc1cccc2c1NCCC2	%	0.338
CN1C(=O)N(C)C2C1NN=c1s/c(=C\c3ccccc3F)c(=O)n12 (stereo not drawn)	%	14.6
O=C1OCC2=C1C(c1cccc(F)c1)c1cc3c(cc1N2CCO)CCC3 (stereo not drawn)	%	-6.45
CC(C)=CC(=O)C1C(=O)c2ccccc2C1=O	%	98.3
O=C(Cn1cc(CSc2nc3ccccc3o2)nn1)Nc1ccc([N+](=O)[O-])cc1	%	102
O=C(Nc1ncc(Cc2ccccc2Cl)s1)c1ccc2c(c1)OCCO2	%	11.7
N#Cc1c(-c2ccc(Cl)cc2)nc(NN=Cc2cccc(Cl)c2)nc1N1CCOCC1	%	102
CCC(C)C(N)C(=O)NC(CC(C)C)C(=O)N1CCCC1C(=O)NC(Cc1c[nH]c2ccccc12)C(=O)NC(CCCCN)C(=O)NC(Cc1c[nH]c2ccccc12)C(=O)N1CCCC1C(=O)NC(Cc1c[nH]c2ccccc12)C(=O)NC(Cc1c[nH]c2ccccc12)C(=O)N1CCCC1C(=O)NC(Cc1c[nH]c2ccccc12)C(=O)NC(CCCNC(=N)N)C(=O)NC(CCCNC(=N)N)C(N)=O (stereo not drawn)	%	144
CCOC(=O)/C(=C\c1ccccc1Cl)P(=O)(OCC)OCC	%	96.7
CC(C)CCc1nc2ccc(NCc3ccc(OCCN4CCC(C)CC4)cc3)cc2[nH]1	%	90.4
COC12C=C/C(=C(/C(=O)OCc3ccccn3)C(=O)CCCCCCCCC3(OC)C=C/C(=C(/C(=O)OCc4ccccn4)C(=O)CCCCCCCC1)O3)O2	%	-25.7
CC(=O)[C@H]1CC[C@]2(C)[C@@H]1CC[C@@H]1[C@@]3(C)C/C(=C/c4cccnc4)C(=O)C(C)(C)[C@@H]3CC[C@]12C	%	89.8
Nc1nc(=O)n([C@H]2CC=C(CO)O2)cc1F	%	102
O=C(Nc1cccc2c1C(=O)c1cccc(NC(=O)c3ccc(C(=O)Nc4cccc5c4C(=O)c4cccc(NC(=O)c6ccccc6)c4C5=O)cc3)c1C2=O)c1ccccc1	%	108
COC(=O)CCc1c(/C=C2\N=C(c3ccc[nH]3)C=C2OC)[nH]c(C)c1C(=O)OCc1ccccc1	%	-30.4
COc1ccc(C2=C/C(=C\c3ccccc3O)C(=O)N2Cc2ccccc2)cc1	%	94
C[C@@H]1N=C(c2ccc(Cl)cc2Cl)Nc2nc3ccccn3c2C1=O	%	14.5
C#Cc1c(I)n(C2OC(CO[Si](C)(C)C(C)(C)C)C3OC(C)(C)OC32)c(=O)[nH]c1=O (stereo not drawn)	%	120
